target.system: binding partner of C5A (XPA23)
method.notes: Biacore, K-off
Catalogue of fold difference in affinity vs original readings, one per entry.
Unit fold implied. Number only.

Record excerpt, results attached:
query: Look up fold difference in affinity vs original of C5A (XPA23) VH M57H (antibody, V domains shown) VH: EVQLLESGGGLVQPGGSLRLSCAASGFTFSKYFMFWVRQAPGKGLEWVSVISPSGGHTRYADSVKGRFTISRDNSKNTLYLQMNSLRAEDTAVYYCARVGYGGNSDYWGQGTLVTVSS VL: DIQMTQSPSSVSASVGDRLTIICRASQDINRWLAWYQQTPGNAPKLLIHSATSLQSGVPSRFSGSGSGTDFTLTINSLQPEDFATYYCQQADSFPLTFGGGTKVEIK and report it.
result: 0.08

query: Look up fold difference in affinity vs original of C5A (XPA23) VH S54E (antibody, V domains shown) VH: EVQLLESGGGLVQPGGSLRLSCAASGFTFSKYFMFWVRQAPGKGLEWVSVISPEGGMTRYADSVKGRFTISRDNSKNTLYLQMNSLRAEDTAVYYCARVGYGGNSDYWGQGTLVTVSS VL: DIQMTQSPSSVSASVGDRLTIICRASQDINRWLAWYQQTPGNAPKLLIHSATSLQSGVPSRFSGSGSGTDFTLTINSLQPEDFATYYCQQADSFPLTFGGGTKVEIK and report it.
result: 0.03

--- query ---
query: Look up fold difference in affinity vs original of C5A (XPA23) VH I51T (antibody, V domains shown) VH: EVQLLESGGGLVQPGGSLRLSCAASGFTFSKYFMFWVRQAPGKGLEWVSVTSPSGGMTRYADSVKGRFTISRDNSKNTLYLQMNSLRAEDTAVYYCARVGYGGNSDYWGQGTLVTVSS VL: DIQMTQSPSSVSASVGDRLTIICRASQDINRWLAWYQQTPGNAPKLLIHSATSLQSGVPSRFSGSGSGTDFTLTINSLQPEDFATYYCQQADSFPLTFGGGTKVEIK and report it.
result: 0.86
